test system: Staphylococcus aureus ATCC 25923
property_label: MIC (µM)
Your answer is read as µM, so omit the unit and give the number.

// solved cases for MIC follow
CC[C@H](C)[C@H](N)C(=O)N[C@@H](CC(C)C)C(=O)NCC(=O)N[C@@H](CCCCN)C(=O)N[C@H](C(=O)N[C@@H](Cc1c[nH]c2ccccc12)C(=O)N[C@@H](CCC(=O)O)C(=O)NCC(=O)N[C@@H](CCCCN)C(=O)N[C@@H](CCCCN)C(=O)N[C@@H](CO)C(=O)N[C@@H](CC(C)C)C(=O)N[C@@H](Cc1ccccc1)C(N)=O)[C@@H](C)CC ... 8
CC[C@H](C)[C@H](NC(=O)[C@H](CCCN=C(N)N)NC(=O)[C@@H](N)Cc1c[nH]c2ccccc12)C(=O)N[C@@H](CCCN=C(N)N)C(=O)N[C@@H](CCCN=C(N)N)C(=O)N[C@@H](CCCN=C(N)N)C(=O)N[C@@H](Cc1c[nH]c2ccccc12)C(=O)N1CCC[C@H]1C(=O)N[C@@H](CCCN=C(N)N)C(=O)N[C@@H](CC(C)C)C(=O)N1CCC[C@H]1C(=O)N[C@@H](CCCN=C(N)N)C(=O)N1CCC[C@H]1C(=O)N[C@@H](CCCN=C(N)N)C(=O)N[C@@H](Cc1c[nH]c2ccccc12)C(=O)N[C@@H](CCCN=C(N)N)C(=O)O ... 12
C[C@@H](O)[C@H](NC(=O)[C@H](CCCN=C(N)N)NC(=O)[C@H](Cc1c[nH]c2ccccc12)NC(=O)[C@H](CCCN=C(N)N)NC(=O)[C@@H](NC(=O)[C@H](CCCN=C(N)N)NC(=O)[C@H](Cc1c[nH]c2ccccc12)NC(=O)[C@H](CCCN=C(N)N)NC(=O)[C@@H](NC(=O)[C@H](CCCN=C(N)N)NC(=O)[C@@H](N)Cc1c[nH]c2ccccc12)[C@@H](C)O)[C@@H](C)O)C(=O)N[C@@H](CCCN=C(N)N)C(N)=O ... 8

The compound listed as CC[C@H](C)[C@H](N)C(=O)N[C@@H](Cc1cnc[nH]1)C(=O)N[C@@H](Cc1cnc[nH]1)C(=O)N[C@H](C(=O)N[C@@H](Cc1cnc[nH]1)C(=O)N[C@@H](Cc1cnc[nH]1)C(=O)N[C@@H](Cc1cnc[nH]1)C(N)=O)[C@@H](C)CC shows MIC equal to 64

The compound listed as CC[C@H](C)[C@H](NC(=O)[C@H](CCCN=C(N)N)NC(=O)[C@H](C)NC(=O)[C@H](CC(C)C)NC(=O)[C@@H](N)CCCN=C(N)N)C(=O)N[C@H](C(=O)N[C@H](C(=O)N[C@H](C(=O)N[C@@H](CCCN=C(N)N)C(=O)N[C@H](C(=O)N[C@@H](C)C(=O)N[C@@H](CCCN=C(N)N)C(=O)O)C(C)C)[C@@H](C)CC)C(C)C)C(C)C shows MIC equal to 12

The compound listed as CC[C@H](C)[C@H](NC(=O)[C@H](CCCN=C(N)N)NC(=O)[C@H](Cc1c[nH]c2ccccc12)NC(=O)[C@H](CCCN=C(N)N)NC(=O)[C@@H](N)C(C)C)C(=O)N[C@@H](CCCN=C(N)N)C(=O)N[C@H](C(=O)N[C@@H](C)C(=O)N[C@H](C(=O)N[C@H](C(=O)N[C@@H](CCCN=C(N)N)C(=O)N[C@@H](C)C(=O)O)[C@@H](C)CC)C(C)C)C(C)C shows MIC equal to 8.03

The compound listed as CC[C@H](C)[C@H](NC(=O)[C@H](CCCCN)NC(=O)[C@H](CCCCN)NC(=O)[C@H](C)NC(=O)[C@H](CC(C)C)NC(=O)[C@H](CC(N)=O)NC(=O)[C@@H](NC(=O)[C@H](CC(C)C)NC(=O)[C@@H](NC(=O)CNC(=O)[C@H](CC(C)C)NC(=O)[C@H](Cc1ccccc1)NC(=O)[C@@H](N)CC(N)=O)[C@@H](C)O)C(C)C)C(=O)N[C@@H](CC(C)C)C(N)=O shows MIC equal to 16
